Where do these numbers come from? They come from patent US20030068675.

molecular target: ZFP SBS#467 (synthetic); experiment: EMSA; conditions: tags: MBP fusion
Sequence (chain, as listed by the source): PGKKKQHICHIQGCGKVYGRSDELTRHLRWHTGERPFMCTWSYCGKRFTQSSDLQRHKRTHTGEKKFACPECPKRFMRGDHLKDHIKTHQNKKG
Test Readout: Kd
Give the figure together with its unit, number first.

Query: Return reported Kd; argument: CAGGCTGCGC (dsDNA) DNA 1: CAGGCTGCGC DNA 2: GCGCAGCCTG
Result: 800 nM
